Would you kindly list pIC50 for each of these compounds?
- MEASUREMENT TARGET: UniProt:O41156
- PROTOCOL DESCRIPTION: NADPH oxidation assay, screen and IC50 by dose-response curves
Keep it numeric: pIC50 is minus log10 of the concentration in mol/L.

query: Which pIC50 reading was recorded for the compound "O=C1C(O)=C(Cc2ccccc2)C(=O)c2ccccc21" ?
result: 5.85

query: Subsequent entry: "O=C1C(O)=C(c2ccc3ccccc3c2)C(=O)c2ccccc21"
result: 5.92

query: Subsequent entry: "COc1ccc(C2=C(O)C(=O)c3ccccc3C2=O)cc1"
result: 5.10

query: Subsequent entry: "O=C1C(O)=C(c2ccc(-c3ccccc3)cc2)C(=O)c2ccccc21"
result: 6.70

query: Subsequent entry: "Cc1ccc(C2=C(O)C(=O)c3ccccc3C2=O)cc1"
result: 5.05

query: Subsequent entry: "COc1ccc(C(=O)CC2=C(O)C(=O)c3ccccc3C2=O)cc1"
result: 4.89

query: Subsequent entry: "O=C(CC1=C(O)C(=O)c2ccccc2C1=O)c1cccs1"
result: 5.10

query: Subsequent entry: "O=C1C(O)=C(c2ccc(Br)cc2)C(=O)c2ccccc21"
result: 5.92

query: Subsequent entry: "COc1ccc(CC2=C(O)C(=O)c3ccccc3C2=O)cc1"
result: 5.30

---

Would you kindly list inhibition at 20 µM for each of these molecules?
- MEASUREMENT TARGET: PBCV-1 ThyX (Paramecium bursaria Chlorella virus 1)
- Sequence (O41156 whole entry): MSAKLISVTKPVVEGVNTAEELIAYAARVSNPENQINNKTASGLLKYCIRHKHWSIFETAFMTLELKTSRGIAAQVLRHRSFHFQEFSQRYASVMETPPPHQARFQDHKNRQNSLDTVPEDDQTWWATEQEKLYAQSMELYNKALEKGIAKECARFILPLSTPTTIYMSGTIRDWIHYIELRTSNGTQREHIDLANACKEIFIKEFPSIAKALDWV
- PROTOCOL DESCRIPTION: Deprotonation (tritium release) assay of ThyX activity
- Format: biochemical, Paramecium bursaria chlorella virus (PBCV-1)
- CONDITION NOTES: read-out: % inhibition (deprotonation) PBCV-1 ThyX
Express the result in % but write the number alone.

query: Which measured inhibition at 20 µM belongs to O=C1C(O)=C(c2ccc(-c3ccccc3)cc2)C(=O)c2ccccc21 [Compound F6-C1] , tested on PBCV-1 ThyX (Paramecium bursaria Chlorella virus 1)?
result: 95

query: Subsequent entry: O=C(O)c1ccccc1NC1=CC(=O)c2c(O)cccc2C1=O [Compound B3-C1]
result: 12

query: Subsequent entry: O=C(CC1=C(O)C(=O)c2ccccc2C1=O)c1ccccc1 [Compound E11-C1]
result: 36

query: Subsequent entry: COc1ccc(C(=O)CC2=C(O)C(=O)c3ccccc3C2=O)cc1 [Compound G3-C1]
result: 22

query: Subsequent entry: O=C(CC1=C(O)C(=O)c2ccccc2C1=O)c1cccs1 [Compound H3-C1]
result: 38

query: Subsequent entry: Cc1ccc(C(=O)CC2=C(O)C(=O)c3ccccc3C2=O)cc1 [Compound F3-C1]
result: 38

query: Subsequent entry: COc1ccc(CC2=C(O)C(=O)c3ccccc3C2=O)cc1 [Compound C8-C1]
result: 78

Where these numbers come from: patent US20130102650A1
